assay_info: Tmax in Sprague-Dawley rat plasma at 10 mg/kg, po by LC-MS/MS analysis
Assay type: ADME, organism-based
Returns label 1 if the recorded Tmax is greater than or equal to 1 h, and label 0 otherwise.

molecular_string=O=C1Cc2cc(S(=O)(=O)NNc3ccc(Br)cc3)ccc2N1 cat="label 0"
molecular_string=CC(=O)Nc1ccc(S(=O)(=O)NNc2ccc(Br)cc2)cc1 cat="label 0"
molecular_string=CC1(C)C(=O)Nc2ccc(S(=O)(=O)NNc3ccc(Br)cc3)cc21 cat="label 1"
molecular_string=O=C1CCc2cc(S(=O)(=O)NNc3ccc(Br)cc3)ccc2N1 cat="label 1"
molecular_string=O=C1CCCN1c1ccc(S(=O)(=O)NNc2ccc(Br)cc2)cc1 cat="label 1"

API: the following record is the query input.
Ask: Hi, just wondering whether O=S(=O)(NNc1ccc(Br)cc1)c1ccc2[nH]c(O)nc2c1 shows Tmax of 1 h or higher.
Reply: label 1

====

Measured log10(clearance) accompanies every entry in the list below.
assay_info: Clearance in Sprague-Dawley rat plasma at 2 mg/kg, iv by LC-MS/MS analysis
Type: ADME, organism-based
Hello, just confirming the data are log10 of clearance with units of mL/min/kg.

Ask: Looking for the measured log10(clearance) of O=C1Cc2cc(S(=O)(=O)NNc3ccc(Br)cc3)ccc2N1 , can you help?
Reply: 1.20

====

assay_info: Oral bioavailability in Sprague-Dawley rat plasma at 10 mg/kg by LC-MS/MS analysis
Type: ADME, organism-based
endpoint: bioavailability (%)
Kindly provide the numeric value in % only, without the unit symbol.

molecular_string=CC(=O)Nc1ccc(S(=O)(=O)NNc2ccc(Br)cc2)cc1 data_value=37
molecular_string=O=C1CCCN1c1ccc(S(=O)(=O)NNc2ccc(Br)cc2)cc1 data_value=35

Would you kindly look at the next entry?
Ask: Looking for the measured bioavailability of CC1(C)C(=O)Nc2ccc(S(=O)(=O)NNc3ccc(Br)cc3)cc21 , can you help?
Reply: 17

====

assay_info: AUC (0 to infinity) in Sprague-Dawley rat plasma at 2 mg/kg, iv by LC-MS/MS analysis
Assay type: ADME, organism-based
Set-up: dose 2 mg/kg, route intravenous, time infinity
Each record is given 1 if its reported AUC(0-inf) is strictly below 1000 ng·h/mL. Records at or above 1000 ng·h/mL are given 0.

Use these answered entries as a reference point.
molecular_string=O=C1Cc2cc(S(=O)(=O)NNc3ccc(Br)cc3)ccc2N1 cat=0
molecular_string=O=C1CCc2cc(S(=O)(=O)NNc3ccc(Br)cc3)ccc2N1 cat=0
molecular_string=O=C1CCCN1c1ccc(S(=O)(=O)NNc2ccc(Br)cc2)cc1 cat=0
molecular_string=CC(=O)Nc1ccc(S(=O)(=O)NNc2ccc(Br)cc2)cc1 cat=0
molecular_string=CC1(C)C(=O)Nc2ccc(S(=O)(=O)NNc3ccc(Br)cc3)cc21 cat=1

Ask: Determine whether this molecule shows AUC(0-inf) lower than 1000 ng·h/mL (ties excluded): O=S(=O)(NNc1ccc(Br)cc1)c1ccc2[nH]c(O)nc2c1
Reply: 1

====

assay_info: Cmax in Sprague-Dawley rat plasma at 10 mg/kg, po by LC-MS/MS analysis
Type: ADME, organism-based
Set-up: dose 10 mg/kg, route oral
endpoint: Cmax (ng/mL)
Kindly provide the numeric value in ng/mL only, without the unit symbol.

Ask: Looking for the measured Cmax of O=C1Cc2cc(S(=O)(=O)NNc3ccc(Br)cc3)ccc2N1 , can you help?
Reply: 2590

Ask: // repeat for O=S(=O)(NNc1ccc(Br)cc1)c1ccc2[nH]c(O)nc2c1 and report
Reply: 124

Ask: // repeat for O=C1CCCN1c1ccc(S(=O)(=O)NNc2ccc(Br)cc2)cc1 and report
Reply: 2050

Ask: // repeat for O=C1CCc2cc(S(=O)(=O)NNc3ccc(Br)cc3)ccc2N1 and report
Reply: 63

Ask: // repeat for CC(=O)Nc1ccc(S(=O)(=O)NNc2ccc(Br)cc2)cc1 and report
Reply: 1190

Ask: // repeat for CC1(C)C(=O)Nc2ccc(S(=O)(=O)NNc3ccc(Br)cc3)cc21 and report
Reply: 72

// data source = ChEMBL document CHEMBL3763120
